- Tested on: SF-295 CNS
- assay.comment: NCI-60 one-dose screen, 48 h
- experimental.context: 10 µM unless noted
This is part of a sample that, as a whole, favours compounds with a hit. Of some 83,000 tested, about 20% had one in any assay. Calls of active or inactive are those of the source. The calls were made as follows: active = growth percent below 10; inactive = the rest.
Outcomes you can answer with include only these: active, inactive

Enquiry: // return assay outcome for C=CCN(C)S(=O)(=O)/N=C1\NC(=O)NC1=C(Cl)Cl
Return: inactive

Enquiry: // return assay outcome for Nc1ccccc1NC(=O)c1ccc(NC(=O)C/C=C/c2cccnc2)cn1
Return: inactive

Enquiry: // return assay outcome for NC(N)=Nc1ccc(Nc2cccc(Nc3ccc(Cl)c(C(F)(F)F)c3)c2)cn1
Return: inactive

Enquiry: // return assay outcome for Cc1occc1-c1nc2s/c(=C/c3ccc(-c4cc(C(F)(F)F)ccc4Cl)o3)c(=O)n2n1
Return: inactive

Enquiry: // return assay outcome for COc1ccc(-n2c(SCc3n[nH]c(=S)o3)nc3ccc(Cl)cc3c2=O)cc1
Return: inactive

Enquiry: // return assay outcome for NC(N)=Nc1ccc(Oc2cccc(NC(N)=Nc3ccc(Cl)c(C(F)(F)F)c3)c2)cn1
Return: inactive

Enquiry: // return assay outcome for CN(C)CCNC(=O)c1ccc(-c2nc3ccc4[nH]ncc4c3c3c2COCC3)cc1
Return: active

Enquiry: // return assay outcome for COc1cc2c(cc1OC)C(Sc1ccc(C)cc1)c1c(nc(N)c(C#N)c1N)O2 (stereo not drawn)
Return: active

Enquiry: // return assay outcome for Nc1ncc(-c2ccc3ncnc(N4CCc5cc(F)c(Cl)cc54)c3c2)cn1
Return: inactive

Enquiry: // return assay outcome for Oc1[nH]c2ccccc2c1Nn1c(N=N/C=c2/ccc3c(c2)C=NN=3)n[nH]c1=S
Return: inactive

Enquiry: // return assay outcome for Cc1c(F)cc(C(N)=O)cc1NCC(=O)Nc1ccc([N+](=O)[O-])cc1
Return: inactive

Enquiry: // return assay outcome for O=C(O)c1ccc(-n2cc(CNc3cc(F)c(F)c(F)c3)c(-c3cccc(F)c3)n2)cc1
Return: inactive

Enquiry: // return assay outcome for CC1(C)[C@@H](O)CC[C@]2(C)[C@H]3CC[C@@H]4[C@H]5[C@H](C(=O)/C=C\c6ccc([N+](=O)[O-])cc6)CC[C@]5(O)CC[C@@]4(C)[C@]3(C)CC[C@@H]12
Return: inactive

Hello, the source for this data is PubChem BioAssay (NCI), in case you need it.
